Catalogue of MIC readings, one per entry.
# Test system: E. coli APEC O2
# assay-explanation: MIC, serial dilution method (CLSI)
# Type: cell-based, Escherichia coli
# run-conditions: Escherichia coli, APECO2, 24 h; read-out: MIC
quantity-measured: MIC (µg/mL)

compound | quantity-measured | units-text | value-measured
CSc1ccc2c(c1)N(CCC1CCCC[N+]1(C)C(C)C)c1ccccc1S2.[Br-] (stereo not shown) | MIC | µg/mL | 128
CC(C)CC[N+](C)(C)C(C)CN1c2ccccc2Sc2ccccc21.[Br-] (stereo not shown) | MIC | µg/mL | 64
CCCCCCCCCCCC[N+](C)(C)C(C)CN1c2ccccc2Sc2ccccc21.[Br-] (stereo not shown) | MIC | µg/mL | 64
CC(CN1c2ccccc2Sc2ccccc21)[N+](C)(C)C.[I-] (stereo not shown) | MIC | µg/mL | 256

---

# Test system: E. coli APEC O2
# assay-explanation: MIC, serial dilution method (CLSI)
# Format: cell-based, Escherichia coli
# run-conditions: Escherichia coli, APECO2, 24 h; read-out: MIC
In this section we review reported MIC values for a set of compounds.
quantity-measured: MIC (µg/mL)

compound | quantity-measured | value-measured
CC(CN1c2ccccc2Sc2ccccc21)N(C)C.Cl (centres unmarked) [Compound S12, reference compound] | MIC | 128
CN(C)CC/C=C1/c2ccccc2Sc2ccc(Cl)cc21.Cl [Compound S34, reference compound] | MIC | 64
C[N+](C)(C)CC/C=C1/c2ccccc2Sc2ccc(Cl)cc21.[I-] | MIC | 256
CCCCC[N+](C)(C)CCCN1c2ccccc2Sc2ccc(Cl)cc21.[Br-] | MIC | 256
CCCCCCCCCCCC[N+]1(C)CCCCC1CCN1c2ccccc2Sc2ccc(SC)cc21.[Br-] (centres unmarked) | MIC | 64
CC(C)CC[N+](C)(C)CCCN1c2ccccc2Sc2ccc(Cl)cc21.[Br-] | MIC | 128
CCCCC[N+](C)(C)CC/C=C1/c2ccccc2Sc2ccc(Cl)cc21.[Br-] | MIC | 64
CC(C)[N+](C)(C)C(C)CN1c2ccccc2Sc2ccccc21.[Br-] (centres unmarked) | MIC | 128

---

# System: Staphylococus pseudintermedius
# assay-explanation: MIC, serial dilution method (CLSI)
# Assay type: cell-based, Staphylococcus pseudintermedius
# run-conditions: Staphylococus pseudintermedius; MH broth, 24 hours at 37° C.; set to 256 if growth at […]

molecule | units-text | MIC
COC(=O)CCCCC[N+](C)(C)CCC=C1c2ccccc2Sc2ccc(Cl)cc21 | µg/mL | 8
C[N+](C)(CCCN1c2ccccc2Sc2ccc(Cl)cc21)Cc1ccccc1 | µg/mL | 2
C=CC[N+](C)(C)CCC=C1c2ccccc2Sc2ccc(Cl)cc21 | µg/mL | 8
C[N+](C)(CCC=C1c2ccccc2Sc2ccc(Cl)cc21)Cc1ccccc1 | µg/mL | 2
CC(CN1c2ccccc2Sc2ccccc21)[N+](C)(C)Cc1ccccc1 (stereo not drawn) | µg/mL | 16
CSc1ccc2c(c1)N(CCC1CCCC[N+]1(C)Cc1ccccc1)c1ccccc1S2 (stereo not drawn) | µg/mL | 2
CCOC(=O)CC[N+]1(C)CCCCC1CCN1c2ccccc2Sc2ccc(SC)cc21 (stereo not drawn) | µg/mL | 16
COC(=O)CCCCC[N+](C)(C)C(C)CN1c2ccccc2Sc2ccccc21 (stereo not drawn) | µg/mL | 32
CCOC(=O)CC[N+](C)(C)CCCN1c2ccccc2Sc2ccc(Cl)cc21 | µg/mL | 32
